// compounds with Ki on Coagulation factor XI (Homo sapiens, UniProt P03951), multi-source literature
The response must be a number in nM with no trailing unit.

Example results:
C[C@@H]1CCC[C@H](N2CCC(c3c(F)ccc(Cl)c3F)=CC2=O)c2cc(ccn2)-c2cn[nH]c2NC1=O: 330
COC(=O)Nc1ccc(-c2cc([C@H](Cc3cccc(F)c3)NC(=O)/C=C/c3cc(Cl)ccc3-n3cnnn3)nnc2Cl)cc1: 10
Cc1nc(-c2cccc(Cl)c2F)n(O)c1C(=O)N[C@@H](Cc1ccc([N+](=O)[O-])cc1)C(=O)Nc1ccc2[nH]c(C(=O)O)cc2c1: 7320
NC[C@H]1CC[C@H](C(=O)NC(Cc2ccccc2)c2cc[n+]([O-])c(-c3ccccc3)c2)CC1 (mixture of isomers): 2530
Cc1nc(-c2ccc(O)c(C#N)c2)n(O)c1C(=O)O: 228000

# evaluate next
Field Ki (Coagulation factor XI (Homo sapiens, UniProt P03951)), entry NC[C@H]1CC[C@H](C(=O)N[C@@H](Cc2ccccc2)c2nc(-c3ccccc3)c(Cl)[nH]2)CC1 : 12
